- Test system: IL10 secretion by TMD8 ABC-DLBCL cells
- Experimental protocol: Human IL10 Mesoscale assay (TMD-8)
- Type: cell-based
- Condition notes: Homo sapiens, TMD8; TMD-8 cells, 24 h
# Lookup of reported IC50 keyed by entry

O=C(Nc1cncc(-n2nccn2)c1)c1cnn(-c2cccc3c(=O)[nH]ccc23)c1C(F)(F)F [Cpd 363]    > 302 nM
COC(=O)c1cnn(-c2ncc(NC(=O)c3cnn(-c4cccc5ncccc45)c3C(F)(F)F)cc2Cl)n1 [Cpd 108]    > 302 nM

Exercise: For the record O=C(Nc1cnc(N2CCCS2(=O)=O)c(Cl)c1)c1cnn(-c2cncc3ccccc23)c1C(F)(F)F [Cpd 42] , what value of IC50 is listed for IL10 secretion by TMD8 ABC-DLBCL cells?
Key: ~110 nM
